- target_of_assay: T1, recombinant rat CTGF protein (R&D Systems) (rat, UniProt Q9R1E9 25-347)
- T1 construct: Bought; also called rCTGF
- T1 sequence: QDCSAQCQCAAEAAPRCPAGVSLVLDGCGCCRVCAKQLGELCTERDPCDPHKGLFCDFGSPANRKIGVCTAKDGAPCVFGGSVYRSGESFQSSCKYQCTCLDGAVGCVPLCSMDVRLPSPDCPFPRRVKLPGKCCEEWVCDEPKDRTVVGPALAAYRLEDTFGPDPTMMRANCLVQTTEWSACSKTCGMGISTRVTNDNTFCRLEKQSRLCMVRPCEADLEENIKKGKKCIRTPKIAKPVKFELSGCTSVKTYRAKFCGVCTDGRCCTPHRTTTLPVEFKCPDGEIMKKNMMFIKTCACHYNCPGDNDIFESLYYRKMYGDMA
- experimental_protocol: SPR (Biacore)
- Experimental: The binding of exemplary lipocalin muteins to human (Creative Biomart), cynomolgus, rat (R&D Systems) and mouse CTGF (Abbexa) was determined by SPR using a Biacore instrument (Cytiva, formerly GE Healthcare). Some targets were fused to a human IgG1 Fc tag, and captured via the anti-human IgG antibody kit, others were directly immobilized. For some measurements, human CTGF with a human IgG1 Fc Tag or rat or murine CTGF without a tag were directly immobilized to a CM5 Chip. […]
assay_metric: Kd (pM)
Output spec: scalar in pM, unitless text.

Example entries begin here.
lipocalin mutein of SEQ ID NO: 22 (designed binder, also called hNGAL mutein; not shown: C-terminal His-tag) QDSTSDLIPAPPLSKVPLQQNFQDNQFQGKWYVVGIAGNAILRVDKQPAKMFATIYELKEDKSYDVTSVRFEAKSCVYTIKTFVPGSQPGEFTAGNIKSAPGQTSTLVRVVSTNYNQHAMVFFKHVSQNREIFVITLYGRTKELTSELKENFIRFSKSLGLPENHIVFPVPIDQCIDG    221
lipocalin mutein of SEQ ID NO: 35 (designed binder, also called hNGAL mutein; not shown: C-terminal His-tag) QDSTSDLIPAPPLSKVPLQQNFQDNQFQGKWYVVGWAGNVKLREDKQPLKMSATIYELKEDKSYDVTEVVFEQKKCHYIIKTFVPGSQPGEFTAGDIKSPPGYTSSLVRVVSTNYNQHAMVFFKKVSQNREFFWITLYGRTKELTSELKENFIRFSKSLGLPENHIVFPVPIDQCIDG    1420
lipocalin mutein of SEQ ID NO: 24 (designed binder, also called hNGAL mutein) QDSTSDLIPAPPLSKVPLQQNFQDNQFQGKWYVVGVAGNAILRTDKQPAKMFATIYELKEDKSYDVTSVRFEAKSCKYTIKTFVPGSQPGEFTAGNIKSAPGQTSTLVRVVSTNYNQHAMVFFKHVSQNREIFVITLYGRTKELTSELKENFIRFSKSLGLPENHIVFPVPIDQCIDG    255
lipocalin mutein of SEQ ID NO: 15 (designed binder, also called hNGAL mutein; not shown: C-terminal His-tag) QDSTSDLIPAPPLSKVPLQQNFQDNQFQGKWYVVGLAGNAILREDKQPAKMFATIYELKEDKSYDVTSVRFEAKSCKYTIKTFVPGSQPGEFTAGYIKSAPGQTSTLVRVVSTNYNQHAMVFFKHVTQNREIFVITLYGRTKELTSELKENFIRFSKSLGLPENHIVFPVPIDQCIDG    950

Measured Kd, lipocalin mutein of SEQ ID NO: 33 (designed binder, also called hNGAL mutein; not shown: C-terminal His-tag) QDSTSDLIPAPPLSKVPLQQNFQDNQFQGKWYVVGWAGNAKLREDKQPFKMSATIYELKEDKSYDVTEVVFEQKKCHYIIKTFVPGSQPGEFTEGNYKRRPRLWSDLVRVVSTNYNQHAMVFFKKVHQNREFFWITLYGRTKELTSELKENFIRFSKSLGLPENHIVFPVPIDQCIDG : 226

Measured Kd, lipocalin mutein of SEQ ID NO: 3 (designed binder, Parent hNGAL mutein; also called hNGAL mutein) QDSTSDLIPAPPLSKVPLQQNFQDNQFHGKWYVVGRAGNNRLREDKDPPKMWATIYELKEDKSYNVTHVHFMTKKCRYIIDTFVPGSQPGEFTLGAIKSGPGMTSPLVRIVSTNYNQHAMVFFKWVNQNREWFTITLYGRTKELTSELKENFIRFSKSLGLPENHIVFPVPIDQCIDGSAWSHPQFEK : 39300

Measured Kd, lipocalin mutein of SEQ ID NO: 10 (designed binder, also called hNGAL mutein; not shown: C-terminal His-tag) QDSTSDLIPAPPLSKVPLQQNFQDNQFQGKWYVVGLAGNAILREDKQPAKMFATIYELKEDKSYDVTSVRFEAKSCSYTIKTFVPGSQPGEFTAGNIKSAPGQTSTLVRVVSTNYNQHAMVFWKSVAGTRESFNIALYGRTKELTSELKENFIRFSKSLGLPENHIVFPVPIDQCIDG : 460

Measured Kd, lipocalin mutein of SEQ ID NO: 29 (designed binder, Parent hNGAL mutein; also called hNGAL mutein) QDSTSDLIPAPPLSKVPLQQNFQDNQFHGKWYVVGWAGNIKLREDKDPFKMSATIYELKEDKSYNVTEVVFEQKKCHYIIKTFVPGSQPGEFTLGDIKSPPGETSSLVRVVSTNYNQHAMVFFKKVFQNREFFWITLYGRTKELTSELKENFIRFSKSLGLPENHIVFPVPIDQCIDGSAWSHPQFEK : 18000
